Every entry's value here was drawn from patent US20100305068A1.

# System: pdr5 ypt1^ts cells
# Measurement Protocol: microbe, parasite or virus in culture
# Type: cell-based, yeast
# Reported Conditions: Table 2; 6.25 μM compound; 37° C.; background (0 μM) 0.058
Would you mind telling me the reported optical density, ypt1-ts, 6.25 of each entry?
Numbers only.

Illustrative cases are given below, each with its answer.
Molecule | optical density, ypt1-ts, 6.25
COc1ccc(-c2cc(=O)c3ccccc3o2)cc1 | 0.567
COC(=O)C[C@H]1C(C)(C)C(=O)[C@@H]2CC3=C4CC(=O)O[C@@H](c5ccoc5)[C@]4(C)CCC3[C@]1(C)C2=O (some centres unmarked) [MEXICANOLIDE] | 0.216
CC(=O)O[C@@H]1C[C@@]2(C)[C@H](c3ccoc3)C[C@H]3O[C@]32[C@]2(C)C(=O)C(O)=C3C(C)(C)C(=O)C=C[C@]3(C)[C@@H]12 | 0.537
CC1(C)C(=O)C=C[C@]2(C)[C@H]3CC[C@@]4(C)[C@H](c5ccoc5)OC(=O)[C@H]5O[C@]54[C@]3(C)C=C[C@@H]12 [7-DESACETOXY-6,7- DEHYDROGEDUNIN] | 0.099

What does the data say about its optical density, ypt1-ts, 6.25? Entry: CC(=O)O[C@@H]1c2c(ccc3ccc(=O)oc23)OC(C)(C)[C@@H]1OC(=O)CC(C)C [DIHYDROSAMIDIN]
0.097
